pKi: −log10 of the molar value.
Assay read-out pKi; system under study: UniProtKB P31424.

Use these answered entries as a reference point.
| molecule-smiles | pKi |
| --- | --- |
| O=S(=O)(c1ccccc1Cl)c1sc2ncccc2c1-c1ccc(Cl)cc1 | 5.82 to 6.30 |
| O=S(=O)(c1ccc(Cl)cc1)c1sc2ncccc2c1N1CC[S+]([O-])CC1 | < 5.82 |
| CC1CCN(c2c(S(=O)(=O)c3ccc(Cl)cc3)sc3nc(Cl)ccc23)CC1 | > 6.30 |
| Cc1ccc(-c2c(S(=O)(=O)c3cccc(C#N)c3)sc3ncccc23)cc1 | > 6.30 |
| COc1cccc(S(=O)(=O)c2sc3ncccc3c2-c2ccc(Cl)cc2)c1 | > 6.30 |

Query O=S(=O)(c1ccc(Cl)cc1)c1sc2ncc(F)cc2c1-c1cccc(F)c1 yields pKi of > 6.30

Query O=S(=O)(c1ccc(Cl)cc1)c1sc2ncccc2c1-c1ccc(Cl)c(Cl)c1 yields pKi of > 6.30

Query Nc1ccc2c(-c3ccc(Cl)cc3)c(S(=O)(=O)c3ccc(Cl)cc3)sc2n1 yields pKi of > 6.30
